Data provenance: patent US20120202793A1

Form: system (UniProt O75116), quantity (IC50), values below.
Sequence (O75116 whole entry, species assumed): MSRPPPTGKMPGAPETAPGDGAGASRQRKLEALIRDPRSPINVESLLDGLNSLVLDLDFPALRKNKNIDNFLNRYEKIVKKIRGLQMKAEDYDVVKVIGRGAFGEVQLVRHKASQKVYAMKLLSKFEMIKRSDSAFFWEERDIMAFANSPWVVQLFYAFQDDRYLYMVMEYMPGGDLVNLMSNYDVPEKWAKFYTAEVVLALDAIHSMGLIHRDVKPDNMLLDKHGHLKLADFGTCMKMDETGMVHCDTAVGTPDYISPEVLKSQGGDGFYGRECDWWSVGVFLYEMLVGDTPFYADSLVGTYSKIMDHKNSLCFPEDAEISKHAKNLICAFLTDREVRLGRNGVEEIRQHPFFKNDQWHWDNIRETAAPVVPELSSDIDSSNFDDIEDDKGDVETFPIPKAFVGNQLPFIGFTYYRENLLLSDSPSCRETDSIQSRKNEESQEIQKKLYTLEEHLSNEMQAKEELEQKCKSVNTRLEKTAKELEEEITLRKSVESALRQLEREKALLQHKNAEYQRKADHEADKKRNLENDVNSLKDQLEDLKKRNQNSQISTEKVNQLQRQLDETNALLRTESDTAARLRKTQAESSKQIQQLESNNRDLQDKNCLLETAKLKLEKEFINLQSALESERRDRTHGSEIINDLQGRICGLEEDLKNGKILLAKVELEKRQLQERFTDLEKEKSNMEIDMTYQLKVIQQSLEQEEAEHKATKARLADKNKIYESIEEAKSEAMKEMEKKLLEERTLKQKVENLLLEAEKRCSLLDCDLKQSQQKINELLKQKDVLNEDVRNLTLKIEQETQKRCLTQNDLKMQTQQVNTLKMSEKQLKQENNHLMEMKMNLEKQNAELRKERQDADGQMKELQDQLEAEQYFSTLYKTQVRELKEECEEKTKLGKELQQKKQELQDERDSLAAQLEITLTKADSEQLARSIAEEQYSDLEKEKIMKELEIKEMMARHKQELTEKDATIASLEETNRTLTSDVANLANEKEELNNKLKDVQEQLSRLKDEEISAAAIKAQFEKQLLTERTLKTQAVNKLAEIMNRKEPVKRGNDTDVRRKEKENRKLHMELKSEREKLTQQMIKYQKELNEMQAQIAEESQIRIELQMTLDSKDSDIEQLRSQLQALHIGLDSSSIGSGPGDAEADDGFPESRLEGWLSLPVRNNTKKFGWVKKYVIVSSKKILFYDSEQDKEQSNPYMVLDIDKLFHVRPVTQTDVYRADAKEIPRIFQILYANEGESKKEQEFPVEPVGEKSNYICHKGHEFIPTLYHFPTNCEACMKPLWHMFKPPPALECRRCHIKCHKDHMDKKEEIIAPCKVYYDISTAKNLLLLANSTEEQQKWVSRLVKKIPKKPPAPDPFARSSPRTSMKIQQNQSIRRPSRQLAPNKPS
experimental.readout: IC50 (nM)

As a guide, the following entries are already answered.
- mol.smiles: "CCCC(=O)Nc1cccc(-c2nc(Nc3ccc4[nH]ncc4c3)c3cc(OCCN(C)C)ccc3n2)c1"
  unit.spec: "nM"
  IC50: 40
- mol.smiles: "NC(=O)COc1cccc(-c2nc(Nc3ccc4[nH]ncc4c3)c3ccccc3n2)c1"
  unit.spec: "nM"
  IC50: 520

I = CC(=O)Oc1cccc(-c2nc(Nc3ccc4[nH]ncc4c3)c3ccccc3n2)c1
II = CCCC(=O)Nc1cccc(-c2nc(Nc3ccc4[nH]ncc4c3)c3cc(OCCCN4CCOCC4)c(OC)cc3n2)c1
**Q:** Endpoint returns the identifier whose IC50 is numerically larger, either I or II . // caller expects the label of the chosen entry
**A:** I

====

Form: system (ROCK 1 (Homo sapiens, UniProt Q13464)), quantity (IC50), values below.

As a guide, the following entries are already answered.
- molecule: "CCCC(=O)Nc1cccc(-c2nc(Nc3ccc4[nH]ncc4c3)c3cc(OCCN(C)C)ccc3n2)c1 [Example 141]"
  IC50: "> 1 µM"
- molecule: "COCCNC(=O)COc1cccc(-c2nc(Nc3ccc4[nH]ncc4c3)c3ccccc3n2)c1 [Example 54]"
  IC50: "> 10 µM"

**Q:** Please tell me the measured IC50 for CC(=O)Oc1cccc(-c2nc(Nc3ccc4[nH]ncc4c3)c3ccccc3n2)c1 [Example 272] ; system: ROCK 1 (Homo sapiens, UniProt Q13464).
Sequence (Q13464 whole entry, species assumed): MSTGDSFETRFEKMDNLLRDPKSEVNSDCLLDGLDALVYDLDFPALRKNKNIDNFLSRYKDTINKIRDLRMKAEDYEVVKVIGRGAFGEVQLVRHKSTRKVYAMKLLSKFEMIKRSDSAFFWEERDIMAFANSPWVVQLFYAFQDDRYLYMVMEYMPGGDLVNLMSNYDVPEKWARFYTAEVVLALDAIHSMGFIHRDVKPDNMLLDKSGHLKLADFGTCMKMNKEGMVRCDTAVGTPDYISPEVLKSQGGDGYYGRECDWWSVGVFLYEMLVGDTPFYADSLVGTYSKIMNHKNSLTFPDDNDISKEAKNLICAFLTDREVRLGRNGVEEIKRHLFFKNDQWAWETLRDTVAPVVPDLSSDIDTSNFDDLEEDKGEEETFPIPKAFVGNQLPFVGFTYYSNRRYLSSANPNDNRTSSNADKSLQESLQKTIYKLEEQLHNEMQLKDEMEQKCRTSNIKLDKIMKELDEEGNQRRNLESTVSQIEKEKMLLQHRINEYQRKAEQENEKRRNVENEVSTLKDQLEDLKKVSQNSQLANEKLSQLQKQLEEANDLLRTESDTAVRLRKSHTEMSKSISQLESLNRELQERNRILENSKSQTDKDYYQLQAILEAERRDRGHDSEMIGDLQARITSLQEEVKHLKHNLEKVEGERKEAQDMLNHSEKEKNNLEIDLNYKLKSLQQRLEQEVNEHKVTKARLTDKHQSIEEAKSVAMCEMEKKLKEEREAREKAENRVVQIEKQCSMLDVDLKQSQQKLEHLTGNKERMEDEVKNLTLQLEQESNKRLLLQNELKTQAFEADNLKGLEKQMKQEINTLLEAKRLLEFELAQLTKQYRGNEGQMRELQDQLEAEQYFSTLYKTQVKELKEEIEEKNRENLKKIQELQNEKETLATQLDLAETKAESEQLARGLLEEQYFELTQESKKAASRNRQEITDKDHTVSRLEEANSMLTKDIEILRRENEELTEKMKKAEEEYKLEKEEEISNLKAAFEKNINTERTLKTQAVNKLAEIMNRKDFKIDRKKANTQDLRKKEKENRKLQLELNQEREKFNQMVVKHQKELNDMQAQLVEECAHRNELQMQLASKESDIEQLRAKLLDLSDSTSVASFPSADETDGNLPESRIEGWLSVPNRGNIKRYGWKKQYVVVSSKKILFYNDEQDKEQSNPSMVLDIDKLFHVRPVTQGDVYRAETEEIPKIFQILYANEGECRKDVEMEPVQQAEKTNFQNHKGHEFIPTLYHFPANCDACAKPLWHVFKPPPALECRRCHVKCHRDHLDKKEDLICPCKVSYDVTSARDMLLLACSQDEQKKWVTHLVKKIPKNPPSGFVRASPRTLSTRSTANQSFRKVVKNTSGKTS
**A:** > 10 µM
